The following molecules are listed with their measured pEC50 values.
target_of_assay: UniProt Q14832
procedure_details: mGlu receptor in vitro assay, human mGlu3
Type: cell-based
pEC50: −log10 of the molar value.

[
  {
    "entry_smiles": "COc1ccc(C(=O)O)c(-c2cnc(COc3ccc(C#CCO)c(C)c3C)cn2)c1",
    "pEC50": "< 4.52"
  },
  {
    "entry_smiles": "COc1c(C(=O)O)cccc1-c1cnc(COc2ccc3c(c2C)OC(C)(C)CC3=O)cn1",
    "pEC50": "< 4.52"
  },
  {
    "entry_smiles": "CCCC(=O)c1ccc(OCCC(C)(C)CCOc2cccc(C(=O)O)c2C)c(C)c1O",
    "pEC50": "< 5.00"
  }
]

Turning to the following molecule.
Note down pEC50 recorded for COc1ccc(C(=O)O)cc1OCCCCOc1ccc(C(=O)c2ccc(C(C)(C)C)cc2)c(O)c1C < 5.00

###

target_of_assay: Rat mGlu2 (Rattus norvegicus)
Sequence (P31421 19-872): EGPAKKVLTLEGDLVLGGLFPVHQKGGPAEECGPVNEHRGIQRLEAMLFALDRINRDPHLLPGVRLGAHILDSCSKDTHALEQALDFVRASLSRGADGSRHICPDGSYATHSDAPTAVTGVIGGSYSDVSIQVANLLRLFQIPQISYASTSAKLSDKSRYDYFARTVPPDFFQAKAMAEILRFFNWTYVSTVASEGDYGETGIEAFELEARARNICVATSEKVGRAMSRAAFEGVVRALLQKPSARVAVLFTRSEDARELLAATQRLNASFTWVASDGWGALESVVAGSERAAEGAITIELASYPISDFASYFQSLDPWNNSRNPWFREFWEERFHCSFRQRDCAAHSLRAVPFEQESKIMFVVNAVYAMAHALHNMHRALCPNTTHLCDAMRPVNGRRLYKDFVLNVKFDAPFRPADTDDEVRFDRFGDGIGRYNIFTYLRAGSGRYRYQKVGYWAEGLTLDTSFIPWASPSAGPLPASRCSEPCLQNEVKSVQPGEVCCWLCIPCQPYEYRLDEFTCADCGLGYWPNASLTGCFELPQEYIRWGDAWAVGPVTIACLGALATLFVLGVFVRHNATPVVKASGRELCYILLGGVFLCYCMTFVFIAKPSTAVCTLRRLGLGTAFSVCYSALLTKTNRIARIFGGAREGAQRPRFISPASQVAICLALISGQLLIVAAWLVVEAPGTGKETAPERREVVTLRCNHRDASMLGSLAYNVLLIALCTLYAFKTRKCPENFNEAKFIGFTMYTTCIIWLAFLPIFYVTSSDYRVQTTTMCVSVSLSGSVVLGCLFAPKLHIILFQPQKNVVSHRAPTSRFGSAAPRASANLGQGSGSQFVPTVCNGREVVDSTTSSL
procedure_details: mGlu receptor in vitro assay, thallium flux through GIRK channels, rat mGlu2
cond: PAM potency with EC20 glutamate
pEC50: −log10 of the molar value.
observed_property: pEC50

[
  {
    "entry_smiles": "Cc1c(OCCCCSc2cccc(C(=O)O)c2)ccc(C(=O)CC(C)C)c1O",
    "pEC50": 6.49
  },
  {
    "entry_smiles": "CCCC(=O)c1ccc(OC/C=C/COc2ccc(C(=O)O)c(Cl)c2)c(C)c1O",
    "pEC50": 7.36
  },
  {
    "entry_smiles": "CCCCC(=O)c1ccc(OCCCCCOc2cccc(C(=O)O)c2C)c(C)c1O",
    "pEC50": 6.37
  }
]

a = CCCC(=O)c1ccc(OCCCCCOc2ccc(C(=O)O)cc2Cl)c(C)c1O
b = CCCC(=O)c1ccc(OCCSCCOc2ccc(C(=O)O)cc2OC)c(C)c1O
Between a and b , whose recorded pEC50 is greater? Provide the label of your selected option as the answer. b
(b: 7.74, a: 7.37)

###

target_of_assay: UniProt:Q14416
procedure_details: mGlu receptor in vitro assay, human mGlu2
pEC50: −log10 of the molar value.
observed_property: pEC50

[
  {
    "entry_smiles": "COc1ccc(C(=O)O)cc1OCCCCCCCOc1ccc(C(=O)CC(C)(C)C)c(O)c1C",
    "endpoint_value": 6.48
  },
  {
    "entry_smiles": "COc1c(C(=O)O)cccc1-c1ccc(COc2ccc(C(=O)CC(C)(C)C)c(O)c2C)cn1",
    "endpoint_value": 7.16
  }
]

A = COc1ccc(C(=O)O)cc1OC/C=C/COc1ccc(C(=O)CC(C)(C)C)c(O)c1C
B = CCCC(=O)c1ccc(OC/C=C/COc2ccc(C(=O)O)c(Cl)c2)c(C)c1O
Between A and B , whose recorded pEC50 is greater? Provide the label of your selected option as the answer. B
(B: 7.70, A: 7.25)

###

target_of_assay: Human mGlu2 (Homo sapiens, UniProt Q14416)
Sequence (Q14416 19-872): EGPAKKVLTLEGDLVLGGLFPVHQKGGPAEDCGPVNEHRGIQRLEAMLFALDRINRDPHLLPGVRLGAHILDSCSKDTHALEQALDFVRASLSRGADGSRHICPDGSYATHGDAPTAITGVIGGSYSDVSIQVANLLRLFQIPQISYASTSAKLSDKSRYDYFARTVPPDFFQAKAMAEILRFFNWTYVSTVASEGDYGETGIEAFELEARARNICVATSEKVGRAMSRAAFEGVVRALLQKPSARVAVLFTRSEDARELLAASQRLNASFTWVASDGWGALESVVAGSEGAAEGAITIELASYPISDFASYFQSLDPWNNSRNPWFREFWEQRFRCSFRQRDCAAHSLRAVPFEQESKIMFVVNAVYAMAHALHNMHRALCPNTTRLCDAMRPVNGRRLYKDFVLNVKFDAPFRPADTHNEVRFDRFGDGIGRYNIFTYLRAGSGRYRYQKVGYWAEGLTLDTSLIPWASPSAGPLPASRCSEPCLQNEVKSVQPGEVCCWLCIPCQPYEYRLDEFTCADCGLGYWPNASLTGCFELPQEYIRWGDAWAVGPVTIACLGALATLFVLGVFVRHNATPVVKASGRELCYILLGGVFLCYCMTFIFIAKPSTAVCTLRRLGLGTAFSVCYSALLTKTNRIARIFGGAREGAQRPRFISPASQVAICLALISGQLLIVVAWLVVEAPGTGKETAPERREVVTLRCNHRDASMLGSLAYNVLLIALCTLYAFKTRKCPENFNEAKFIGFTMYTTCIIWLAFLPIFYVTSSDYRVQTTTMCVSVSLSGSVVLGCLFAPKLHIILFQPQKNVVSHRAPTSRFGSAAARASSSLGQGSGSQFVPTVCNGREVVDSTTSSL
procedure_details: mGlu receptor in vitro assay, human mGlu2
pEC50: −log10 of the molar value.
observed_property: pEC50

[
  {
    "entry_smiles": "Cc1c(OCc2nc(-c3cccc(C(=O)O)c3)no2)ccc(C(=O)C2CC2)c1O",
    "endpoint_value": 6.92
  }
]

a = Cc1c(OCCCCCOc2ccc(C(=O)CC(C)(C)C)c(O)c2C)cccc1C(=O)O
b = [2H]C([2H])(CCCC([2H])([2H])Oc1ccc(C(=O)CCC)c(O)c1C)Oc1cccc(C(=O)O)c1C
Which gives the smaller pEC50 number: a or b ? Provide the label of your selected option as the answer. a
(a: 6.82, b: 7.18)

###

target_of_assay: Rat mGlu3 (Rattus norvegicus, UniProt P31422)
Sequence (P31422 23-879): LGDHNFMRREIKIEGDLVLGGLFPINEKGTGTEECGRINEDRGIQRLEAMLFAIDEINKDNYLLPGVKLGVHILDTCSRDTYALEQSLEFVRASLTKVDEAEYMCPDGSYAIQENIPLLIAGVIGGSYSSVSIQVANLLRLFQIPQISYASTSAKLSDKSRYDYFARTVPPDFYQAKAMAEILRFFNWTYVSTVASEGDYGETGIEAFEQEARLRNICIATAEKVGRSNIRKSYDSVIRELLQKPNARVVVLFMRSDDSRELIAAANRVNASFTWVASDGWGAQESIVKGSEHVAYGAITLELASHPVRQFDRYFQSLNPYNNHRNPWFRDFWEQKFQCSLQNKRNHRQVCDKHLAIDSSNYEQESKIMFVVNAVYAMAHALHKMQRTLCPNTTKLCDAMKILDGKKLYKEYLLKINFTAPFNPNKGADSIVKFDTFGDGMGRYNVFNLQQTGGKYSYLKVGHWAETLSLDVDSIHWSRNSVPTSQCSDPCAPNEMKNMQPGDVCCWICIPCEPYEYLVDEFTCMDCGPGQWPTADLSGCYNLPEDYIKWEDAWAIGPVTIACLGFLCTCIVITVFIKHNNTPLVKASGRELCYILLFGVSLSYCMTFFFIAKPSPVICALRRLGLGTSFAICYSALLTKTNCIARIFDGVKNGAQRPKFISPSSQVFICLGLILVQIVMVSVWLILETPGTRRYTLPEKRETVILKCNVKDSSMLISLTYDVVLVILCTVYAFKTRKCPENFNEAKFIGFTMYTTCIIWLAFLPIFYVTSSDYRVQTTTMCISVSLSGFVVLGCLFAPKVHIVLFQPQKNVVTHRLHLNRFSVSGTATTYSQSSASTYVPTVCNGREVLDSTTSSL
procedure_details: mGlu receptor in vitro assay (thallium flux through GIRK channels / calcium assay), rat mGlu3
cond: PAM potency with EC20 glutamate
observed_property: EC50 (nM)

[
  {
    "compound": "[2H]C([2H])(CCCC([2H])([2H])Oc1ccc(C(=O)CCC)c(O)c1C)Oc1ccc(C(=O)O)cc1OC",
    "EC50 (nM)": 2380
  },
  {
    "compound": "COc1ccc(C(=O)O)cc1OCCCCCOc1ccc(C(=O)CC(C)(C)C)c(O)c1C",
    "EC50 (nM)": 315
  },
  {
    "compound": "Cc1c(OCCSCCOc2ccc(C(=O)CC(C)(C)C)c(O)c2C)cccc1C(=O)O",
    "EC50 (nM)": 578
  },
  {
    "compound": "Cc1c(OCc2cccc(-c3cccc(C(=O)O)c3)c2)ccc(C(=O)c2ccccc2)c1O",
    "EC50 (nM)": 2280
  },
  {
    "compound": "Cc1c(OC/C=C/COc2ccc(C(=O)CC(C)(C)C)c(O)c2C)cccc1C(=O)O",
    "EC50 (nM)": 73
  }
]

1 = COc1ccc(C(=O)O)cc1OCC#CCOc1ccc(C(=O)CC(C)(C)C)c(O)c1C
2 = CCCC(=O)c1ccc(OCCOCCOc2ccc(C(=O)O)c(Cl)c2)c(C)c1O
Which gives the smaller EC50 number: 1 or 2 ? Provide the label of your selected option as the answer. 1

I = COc1cc(F)c(C(=O)O)cc1-c1cnc(COc2ccc(C(=O)CC(C)(C)C)c(O)c2C)cn1
II = COc1ccc(C(=O)O)cc1OCCCCOc1ccc(C(=O)c2ccc(F)cc2)c(O)c1C
III = COc1ccc(C(=O)O)cc1OCC(C)CCOc1ccc(C(=O)CC(C)(C)C)c(O)c1C (stereo not drawn)
IV = Cc1c(OCc2cnc(-c3cccc(C(=O)O)c3)cn2)ccc(C(=O)C(C)(C)C)c1O
V = CCCC(=O)c1ccc(OCCSCCOc2ccc(C(=O)O)c(Cl)c2)c(C)c1O
List by increasing EC50. Show the ranking through the labels, in the order asked for. I, III, IV, V, II
(I: 53 nM, III: 200 nM, IV: 327 nM, V: 552 nM, II: 3030 nM)

###

target_of_assay: Human mGlu3 (Homo sapiens, UniProt Q14832)
Sequence (Q14832 23-879): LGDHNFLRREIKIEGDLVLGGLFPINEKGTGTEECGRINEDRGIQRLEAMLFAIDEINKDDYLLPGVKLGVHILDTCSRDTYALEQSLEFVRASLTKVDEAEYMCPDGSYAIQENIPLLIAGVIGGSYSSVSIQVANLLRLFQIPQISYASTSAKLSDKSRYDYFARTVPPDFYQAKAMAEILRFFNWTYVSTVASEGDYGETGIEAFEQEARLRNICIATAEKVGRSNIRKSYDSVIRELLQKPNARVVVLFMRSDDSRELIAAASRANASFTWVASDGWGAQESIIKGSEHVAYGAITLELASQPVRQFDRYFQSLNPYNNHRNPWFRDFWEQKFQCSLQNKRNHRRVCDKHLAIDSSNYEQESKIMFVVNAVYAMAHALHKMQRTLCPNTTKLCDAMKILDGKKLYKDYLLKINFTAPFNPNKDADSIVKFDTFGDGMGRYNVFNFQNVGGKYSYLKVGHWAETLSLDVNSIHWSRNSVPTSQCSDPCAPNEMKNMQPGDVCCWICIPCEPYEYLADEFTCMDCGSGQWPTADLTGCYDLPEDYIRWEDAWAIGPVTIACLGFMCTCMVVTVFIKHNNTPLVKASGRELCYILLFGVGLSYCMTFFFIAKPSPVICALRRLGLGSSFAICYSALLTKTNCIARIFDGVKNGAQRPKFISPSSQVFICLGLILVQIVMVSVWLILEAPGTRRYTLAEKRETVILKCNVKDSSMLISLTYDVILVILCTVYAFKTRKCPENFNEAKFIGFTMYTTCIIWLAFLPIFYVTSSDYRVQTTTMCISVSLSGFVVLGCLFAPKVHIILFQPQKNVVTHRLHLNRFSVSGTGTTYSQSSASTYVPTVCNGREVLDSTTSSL
procedure_details: mGlu receptor in vitro assay, human mGlu3
Format: cell-based
observed_property: EC50

[
  {
    "entry_smiles": "CCCC(=O)c1ccc(OCCCCOc2ccc(C(=O)O)c(Cl)c2)c(C)c1O",
    "EC50": "> 30 µM"
  },
  {
    "entry_smiles": "Cc1c(OCc2nc(-c3cccc(C(=O)O)c3)no2)ccc(C(=O)C2CC2)c1O",
    "EC50": "> 10 µM"
  }
]

Turning to the following molecule.
Note down EC50 recorded for [2H]C([2H])(CCCC([2H])([2H])Oc1ccc(C(=O)CCC)c(O)c1C)Oc1ccc(C(=O)O)cc1OC > 30 µM

###

target_of_assay: Rat mGlu3 (Rattus norvegicus, UniProt P31422)
procedure_details: mGlu receptor in vitro assay (thallium flux through GIRK channels / calcium assay), rat mGlu3
cond: PAM potency with EC20 glutamate
pEC50: −log10 of the molar value.
The following molecules are listed with their measured pEC50 values.

Worked cases, pEC50 given:
[
  {
    "molecule": "CCCC(=O)c1ccc(OCCCCCOc2ccc(C(=O)O)cc2Cl)c(C)c1O",
    "observed_property": "pEC50",
    "endpoint_value": "< 5.00"
  },
  {
    "molecule": "CCCC(=O)c1ccc(OCCOCCNc2cccc(C(=O)O)c2)c(C)c1O",
    "observed_property": "pEC50",
    "endpoint_value": "< 5.00"
  },
  {
    "molecule": "CCCC(=O)c1ccc(OCC[S+]([O-])CCOc2ccc(C(=O)O)c(Cl)c2)c(C)c1O (centres unmarked)",
    "observed_property": "pEC50",
    "endpoint_value": "< 4.52"
  }
]

Note down pEC50 recorded for CCCC(=O)c1ccc(OCC#CCOc2ccc(C(=O)O)c(Cl)c2)c(C)c1O < 5.00

Note down pEC50 recorded for CCCC(=O)c1ccc(OCCCCCOc2ccc(C(=O)CCC)c(O)c2C)c(C)c1O < 4.52

Note down pEC50 recorded for [2H]C([2H])(CCCC([2H])([2H])Oc1ccc(C(=O)CCC)c(O)c1C)Oc1cccc(C(=O)O)c1C < 5.00

Note down pEC50 recorded for Cc1c(Oc2cccc(C(=O)O)c2)ccc(C(=O)CC(C)(C)C)c1O < 5.00

Note down pEC50 recorded for Cc1c(OCc2cccc(-c3cccc(NC(=O)NS(C)(=O)=O)c3)c2)ccc(C(=O)CC(C)(C)C)c1O < 5.00

###

target_of_assay: Rat mGlu3 (Rattus norvegicus, UniProt P31422)
procedure_details: mGlu receptor in vitro assay (thallium flux through GIRK channels / calcium assay), rat mGlu3
cond: PAM potency with EC20 glutamate
pEC50: −log10 of the molar value.
observed_property: pEC50

I = Cc1c(OCc2cnc(-c3cccc(C(=O)NS(C)(=O)=O)c3)cn2)ccc(C(=O)CC(C)(C)C)c1O
II = Cc1c(OCc2nc(-c3cccc(C(=O)O)c3)no2)ccc(C(=O)CC(C)(C)C)c1O
III = Cc1c(OCCCCNc2cccc(C(=O)O)c2)ccc(C(=O)CC(C)(C)C)c1O
Number of compounds to sort: 3. Sort criterion: pEC50, ascending. Show the ranking through the labels, in the order asked for. I, III, II

1 = Cc1c(OCc2cnc(-c3ccc(F)c(C(=O)O)c3)cn2)ccc(C(=O)CC(C)(C)C)c1O
2 = Cc1c(OCCCCSc2cccc(C(=O)O)c2)ccc(C(=O)CC(C)C)c1O
3 = Cc1c(OCc2cnc(-c3cccc(-c4noc(=S)[nH]4)c3)cn2)ccc(C(=O)CC(C)(C)C)c1O
List by increasing pEC50. Show the ranking through the labels, in the order asked for. 3, 2, 1
(3: 5.58, 2: 5.83, 1: 7.37)
